For each record, write down the corresponding Inhibition.
- System: Staphylococcus aureus
- assay.text: Antibacterial activity against Staphylococcus aureus MRSA ATCC 43300 (CO-ADD:GP_020); MIC in CAMBH media using NBS plates, by Resazurin F(560/590)
- Type: functional
- condition.label: Concentration 20 uM, ASSAY_TEST Inhibition of Bacterial Growth, detection method Resazurin, Fluorescence (ex560/em590), MEDIA CAMHB, plate type 384well, CORNING #3640, time 18 hr
Give the value in % but do not write % after it.

(Q) I have this compound here, Nc1ncnc2c1cnn2C1CCCCC1 , and I need its recorded Inhibition.
(A) -0.45

(Q) I have this compound here, CC(=O)CC(=O)Nc1ccc2ccccc2c1 , and I need its recorded Inhibition.
(A) -8

(Q) I have this compound here, CC(=O)OC1CCC2(C)C(=CCC3C2CCC2(C)C3CC3OC4(CCC(C)CN4)C(C)C32)C1 (centres undefined) , and I need its recorded Inhibition.
(A) -5.01

(Q) I have this compound here, COc1ccc([N+](=O)[O-])cc1NC(=O)N(C)Cc1ccco1 , and I need its recorded Inhibition.
(A) 9.28

(Q) I have this compound here, O=C(CC1(O)CCCCC1)OC1CCCC1 , and I need its recorded Inhibition.
(A) -23.97

(Q) I have this compound here, CCOC(=O)CC1(C)NC(C(=O)O)C(C)(C)S1 (centres undefined) , and I need its recorded Inhibition.
(A) -14.37

(Q) I have this compound here, Nc1ccc(/N=N/c2ccccc2)c2ccccc12 , and I need its recorded Inhibition.
(A) 1.47

(Q) I have this compound here, O=C(O)Cc1ccc(/N=N/c2c(O)c(C(=O)O)cc3ccccc23)cc1 , and I need its recorded Inhibition.
(A) 6.99

(Q) I have this compound here, C=CCOC(=O)/C=C\C(=O)NC(N)=O , and I need its recorded Inhibition.
(A) 5.08

(Q) I have this compound here, CSc1ccc2c(c1)C(N1CCN(C)CC1)Cc1ccccc1S2.O=C(O)/C=C\C(=O)O (centres undefined) , and I need its recorded Inhibition.
(A) -0.23

(Q) I have this compound here, CCOC(=O)c1cc(OCC)c2c(ccc3ccccc32)n1 , and I need its recorded Inhibition.
(A) -12.94

(Q) I have this compound here, CC(C)(C)N1CC(OC(N)=O)C1 , and I need its recorded Inhibition.
(A) 21.14

(Q) I have this compound here, O=C(O)c1ccccc1-c1ccccc1C(=O)Nc1ccc2c(c1)nc(O)c1ccccc12 , and I need its recorded Inhibition.
(A) 7.3

(Q) I have this compound here, Cc1nc2[nH]c(=O)n(O)c(=O)c2s1 , and I need its recorded Inhibition.
(A) 4.12

(Q) I have this compound here, COc1ccc2c(C)cc(C)nc2n1 , and I need its recorded Inhibition.
(A) 4.34

(Q) I have this compound here, C=CCSC(CC)(CC)C(N)=O , and I need its recorded Inhibition.
(A) 1.95

(Q) I have this compound here, NC(=O)c1ccccc1NC(=O)c1ccccc1Cl , and I need its recorded Inhibition.
(A) -3.45

(Q) I have this compound here, NC(=O)Nc1ccc(Nc2ccccc2)cc1 , and I need its recorded Inhibition.
(A) 15.79

(Q) I have this compound here, Clc1nnc2c3ccccc3ccn12 , and I need its recorded Inhibition.
(A) -3.22

The measured values listed here are drawn from ChEMBL document CHEMBL4296182.
